Test system: HL-60
assay explanation: NCI tumour cell line growth inhibition, 48 h
Activity calls are given as the source filed them. Cut-off read from the data, not from the text of the source: active = GI50 up to about 1.1 µM and inactive = higher.
Items are presented alongside their recorded GI50.
value type: GI50

>>> value_reported("COc1ccc2[nH]c3c(C)c4ccnc(NCCCN(C)CCCNc5ccc6ncn7c8ccccc8c(=O)c5c67)c4c(C)c3c2c1")
"0.08 µM (active)"
>>> value_reported("Cc1cc(NS(=O)(=O)c2ccc(Nc3c4ccccc4nc4c(C(=O)NCCO)cccc34)cc2)no1")
"37.9 µM (inactive)"
>>> value_reported("O=c1cc(-c2ccccc2)[nH]c2cccc(S)c12")
"0.201 µM (active)"
>>> value_reported("CN(/N=C/c1cccc2cccnc12)c1ccc([N+](=O)[O-])cc1[N+](=O)[O-]")
"40.8 µM (inactive)"
>>> value_reported("NC1CC(=O)c2cscc21 (centres undefined)")
"13.6 µM (inactive)"
>>> value_reported("N#Cc1c(C(N)=O)ncn1Cc1ccccc1")
"> 100 µM (inactive)"
>>> value_reported("COC(=O)c1c(O)ccc2c1c1c(n2Cc2ccccn2)C(=O)c2ccccc2C1=O")
"62.2 µM (inactive)"
>>> value_reported("Cc1ccc2c(O)cc(-c3ccccc3)nc2n1")
"0.0255 µM (active)"
>>> value_reported("CCOc1ccccc1NC(=O)C(=O)CC(=O)C1=C(C)Nc2ccccc2S1")
"> 21.1 µM (inactive)"

---

Tested on: HOP-18
assay explanation: NCI tumour cell line growth inhibition, 48 h
Active and inactive are the calls of the source. Cut-off read from the data, not from the text of the source: active = GI50 up to about 1.1 µM and inactive = higher.
Possible outcomes: active, inactive

>>> category("O=[N+]([O-])c1ccc(Sc2c3ccccc3nc3cc(Cl)ccc23)cc1")
"inactive"
>>> category("O=C(O/N=C1/CCC/C1=C\\c1ccccc1)c1ccccc1")
"inactive"
>>> category("c1ccc(NC[Si]23OCCN(CCO2)CCO3)cc1")
"inactive"
>>> category("O=C1/C(=C/c2ccccc2)CN(C(=O)C(Cl)(Cl)Cl)C/C1=C\\c1ccccc1")
"inactive"
>>> category("Cc1ccc(NC(=O)/C(=N\\Nc2ccc([N+](=O)[O-])cc2[N+](=O)[O-])C2C(=O)NC(=O)NC2=O)cc1")
"inactive"
>>> category("Cc1ccc(NC(=O)c2cc3cc(/N=N/c4ccc(Br)cc4)ccc3oc2=O)cc1")
"active"
>>> category("CN(/N=C/c1cccc2cccnc12)c1ccc([N+](=O)[O-])cc1[N+](=O)[O-]")
"inactive"
>>> category("CC(C)CCCC(C)[C@H]1CCC2[C@@H]3CCC4Nc5c(cnn5-c5ccccc5)C[C@]4(C)C3CC[C@@]21C (some centres not stated)")
"inactive"
>>> category("CN(C)C(=O)/N=c1\\ss/c(=N\\C(=S)N(C)C)n1-c1ccccc1")
"inactive"
>>> category("CN1CCN(Cc2nc3cccc4c3c([n+]2[O-])-c2ccccc2-4)CC1")
"inactive"
>>> category("CCOC(=O)c1c2ccc(/C=C/c3ccccn3)ccc-2c(C(=O)OCC)c1N")
"inactive"
>>> category("O=C(CC(=O)c1cccc2ccccc12)C(=O)Nc1ccc(Cl)cc1")
"inactive"
>>> category("N#CN=C(N(Cc1ccccc1)Cc1ccccc1)N(Cc1ccccc1)Cc1ccccc1")
"inactive"
>>> category("O=C(O)c1ccccc1C1c2ccc(Cl)cc2Oc2cc(Cl)ccc21")
"inactive"
>>> category("CC(C)N(C(=O)C12C3C4C5C3C1(C#N)C5C42)C(C)C (configuration not stated)")
"inactive"
>>> category("COc1ccc(C(=O)O)c(Cc2cccc3ccccc23)c1")
"inactive"
>>> category("COc1ccc2nc3cccc(C(=O)NCCN(C)C)c3nc2c1")
"inactive"

---

Tested on: HOP-62
assay explanation: NCI tumour cell line growth inhibition, 48 h
Activity calls are given as the source filed them. Rule as the data show it: active = GI50 up to about 1.1 µM and inactive = higher.
value type: GI50

>>> value_reported("O=C1NC(NNc2ccccc2)=N/C1=C\\c1ccccc1O")
"48.4 µM (inactive)"
>>> value_reported("CN(C(=O)Cc1cc(Cl)c(Cl)cc1NC(=O)CCCN)[C@H]1CCCC[C@@H]1N1CCCC1")
"> 100 µM (inactive)"
>>> value_reported("C[C@@H](CO)C1=C(O)C(=O)c2c(ccc3c2CCCC3(C)C)C1=O")
"29.2 µM (inactive)"
>>> value_reported("CCOC(=O)C1=C(c2ccccc2)N(C)c2ccccc2S1")
"36.4 µM (inactive)"
>>> value_reported("COC(=O)C(=O)C(C(=O)OC)C(=O)C(=O)Nc1cc(Cl)c(Cl)cc1Cl (stereo unspecified)")
"> 100 µM (inactive)"
>>> value_reported("O=C1CSC(c2ccc(Cl)cc2Cl)N1c1ccc(Oc2ccc(Cl)cc2)c(Cl)c1 (stereo unspecified)")
"23.8 µM (inactive)"
>>> value_reported("COc1cc(C2C(C#N)=C(N)OC3=C2CCS(=O)(=O)c2ccc(C)cc23)cc(OC)c1OC (stereo unspecified)")
"> 100 µM (inactive)"
>>> value_reported("CC1(C)CC(=O)C2(CC(CSc3ccccc3)C(CS(=O)(=O)c3ccccc3)C2)C(=O)C1 (stereo unspecified)")
"> 100 µM (inactive)"
>>> value_reported("O=C1NC(=O)/C(=C/c2ccc(S(=O)(=O)N/N=C\\C(O)C(O)C(O)C(O)CO)cc2)N1 (stereo unspecified)")
"> 100 µM (inactive)"
>>> value_reported("CCN(CC)c1ccc2cc(C(=O)Nc3nc(C45CC6CC(CC(C6)C4)C5)cs3)c(=O)oc2c1")
"> 100 µM (inactive)"
>>> value_reported("COc1ccc(/C=C(\\C#N)c2nc(-c3cc4ccccc4oc3=O)cs2)cc1")
"15.2 µM (inactive)"
>>> value_reported("COC1CC(=O)C2C(=O)N(c3ccccc3)C(=O)C23C(C(=O)c2ccccc2)=C(C)NC13O (stereo unspecified)")
"20.2 µM (inactive)"
>>> value_reported("O=C1C(=O)N(c2ccc(Cl)cc2Cl)C(=O)C(=O)C1c1nc2ccccc2s1")
"> 100 µM (inactive)"
>>> value_reported("COc1ccc2c(c1)CC1Cc3cc(OC)c(OC)cc3CN1CC2 (stereo unspecified)")
"71.3 µM (inactive)"
>>> value_reported("Oc1ccccc1C1C=C(c2ccccc2)NC(N2CCCCC2)=C1c1nc2ccccc2[nH]1 (stereo unspecified)")
"14.1 µM (inactive)"
>>> value_reported("CC1(C)Oc2ccccc2OC1O (stereo unspecified)")
"> 100 µM (inactive)"
>>> value_reported("Cc1c2c(n(CCN(C)C)c1C)NN=C(C#N)S2(=O)=O")
"> 100 µM (inactive)"
>>> value_reported("FC(F)(F)C1(C(F)(F)F)C2CCC3(CC(F)(F)C(F)(F)S3)C1C2 (stereo unspecified)")
"48.4 µM (inactive)"
>>> value_reported("Nc1c(C(=O)c2ccc(Cl)cc2)[nH]c(Nc2ccc(Cl)cc2)c1C(=S)Nc1ccccc1")
"5.65 µM (inactive)"
>>> value_reported("c1cc2n(n1)CCN2")
"3720 µM (inactive)"
>>> value_reported("O=C1C=C(Br)c2c(-c3ccccc3)oc3cccc1c23")
"34.4 µM (inactive)"

---

The reader will find reported GI50 values listed item by item below.
Test system: EKVX
assay explanation: NCI tumour cell line growth inhibition, 48 h
Activity calls are given as the source filed them. Rule as the data show it: active = GI50 up to about 1.1 µM and inactive = higher.
value type: GI50

>>> value_reported("O=[N+]([O-])/C=C/c1cn(CCCCCCCCn2cc(/C=C/[N+](=O)[O-])c3ccccc32)c2ccccc12")
"> 10 µM (inactive)"
>>> value_reported("C=C(Cl)C(=C)CCC(Cl)C(C)C (centres undefined)")
"> 100 µM (inactive)"
>>> value_reported("Cn1c(S)nc2c(Cl)cc(Cl)cc2c1=O")
"> 100 µM (inactive)"
>>> value_reported("N#CCC(=O)N/N=C1\\C(=O)N(c2ccc(Cl)cc2)C(=O)C(=O)C1c1nc2ccccc2o1 (centres undefined)")
"> 100 µM (inactive)"
>>> value_reported("CC(=O)Oc1c2c(c(OC(C)=O)c3c1n(C(C)=O)c1ccccc1n3C(C)=O)n(C(C)=O)c1ccccc1n2C(C)=O")
"> 10 µM (inactive)"
>>> value_reported("C=CC(=O)N1C/C(=C\\c2ccc([N+](=O)[O-])cc2)C(=O)/C(=C/c2ccc([N+](=O)[O-])cc2)C1")
"0.243 µM (active)"
>>> value_reported("OCCOCCN1CCN(c2nc(N3CCCC3)c3nc(Cl)c(NCc4ccccc4)nc3n2)CC1")
"13.6 µM (inactive)"
>>> value_reported("CCOC(=O)C1C(=O)CN2CCc3c([nH]c4ccccc34)C12C(=O)OCC (centres undefined)")
"> 100 µM (inactive)"
>>> value_reported("O=S1(=O)CCN(c2ccccc2CC(c2c[nH]c3ccccc23)c2c[nH]c3ccccc23)CC1")
"8.49 µM (inactive)"

---

System: NCI-H226
assay explanation: NCI tumour cell line growth inhibition, 48 h
The source made the active and inactive calls. Rule as the data show it: active = GI50 up to about 1.1 µM and inactive = higher.
value type: GI50

>>> value_reported("Cc1ccc(Nc2n[nH]c(NS(=O)(=O)c3cc(C)c(Cl)cc3S)n2)cc1")
"> 100 µM (inactive)"
>>> value_reported("N#Cc1nn(-c2ccc(Cl)cc2)c(=N)c2c(N)n3nc(-c4ccccc4)cc3nc12")
"39.7 µM (inactive)"
>>> value_reported("CC1=C(O)C(=O)C=C2C1=CC=C1[C@@]2(C)CC[C@@]2(C)C3C[C@@H](C)C(=O)[C@@H](O)[C@]3(C)CC[C@]12C (stereo not given in full)")
"4.44 µM (inactive)"
>>> value_reported("Cc1n[nH]c(C(F)(F)F)c1/N=N/N(C)C")
"1.95 µM (inactive)"
>>> value_reported("CC#C[C@@]1(O)CCCC[C@@H]1O")
"> 100 µM (inactive)"

src = ChEMBL document CHEMBL1201862
